System: Acinetobacter baumannii ATCC17961
ASSAY INFO: Antimicrobial susceptibility testing: 90% growth inhibitory concentration (IC90) determination
Assay type: cell-based
EXPERIMENTAL CONTEXT: Acinetobacter baumannii ATCC17961; Iso-Sensitest broth; growth by OD 600 nm over 16 h; 35±2° C.; read-out: ATCC 17961 IC90
Where a name gives a salt, the structure may show the parent alone.
OBSERVED PROPERTY: IC90 (nM)

P: COc1ccc(-c2cnc(C(=O)Nc3ccc(C(=O)N4CCN(C(=O)C5CC[N+](C)(C)CC5O)CC4)c(Cl)c3)n2C)c(F)c1F (stereo not drawn) [Example B33, formate]
Q: CCc1cc(NC(=O)c2ncc(-c3ccc(OC)c(F)c3F)n2C)ccc1C(=O)NCCOCC[N+](C)(C)C [Example A5]
Incoming: Lower value of IC90 belongs to which: P or Q ? Mark your answer with the label of the selected entry.
Outgoing: P

1: COc1ccc(-c2cnc(C(=O)Nc3ccc(C(=O)N[C@H]4[C@@H]5CN(C(=O)N[C@@H]6C[N+](C)(C)C[C@H]6O)C[C@@H]54)c(Cl)c3)n2C)c(F)c1F [Example B55]
2: COc1ccc(-c2cnc(C(=O)Nc3ccc(C(=O)N4CCN(C(=O)C5CC[N+](C)(CC6CNC6)CC5)CC4)c(Cl)c3)n2C)c(F)c1F (stereo not drawn) [Example C16]
Incoming: Parameter check: reported IC90 is higher for which label, 1 or 2 ? Mark your answer with the label of the selected entry.
Outgoing: 1

P: COc1ccc(-c2cnc(C(=O)Nc3ccc(C(=O)NCc4cnn(CC(=O)N5CC[N+](C)(C)CC5)c4)c(Cl)c3)n2C)c(F)c1F [Example B32]
Q: COc1ccc(-c2cnc(C(=O)Nc3ccc(C(=O)N4C[C@@H]5CN(C(=O)[C@@H]6CC[N+](C)(C)C6)C[C@@H]5C4)c(Cl)c3)n2C)c(F)c1F [Example B18, formate]
Incoming: Parameter check: reported IC90 is higher for which label, P or Q ? Mark your answer with the label of the selected entry.
Outgoing: Q
(Q: 300 nM, P: 200 nM)

###

Tested on: Acinetobacter baumannii ATCC17961
ASSAY INFO: Antimicrobial susceptibility testing: 90% growth inhibitory concentration (IC90) determination
Format: cell-based
EXPERIMENTAL CONTEXT: Acinetobacter baumannii ATCC17961; Iso-Sensitest broth; growth by OD 600 nm over 16 h; 35±2° C.; read-out: ATCC 17961 IC90
Structures can show the parent of a compound that is named as a salt.
OBSERVED PROPERTY: IC90 (nM)

Examples from the recorded data:
MOLECULE | UNIT TAG | READOUT VALUE
Cn1c(-c2ccc(OC(F)F)c(F)c2F)cnc1C(=O)Nc1ccc(C(=O)N2CCN(C(=O)C3CC[N+](C)(CC4CNC4)CC3)CC2)c(Cl)c1 (stereo not drawn) [Example C13] | nM | 73
COc1ccc(-c2cnc(C(=O)Nc3ccc(C(=O)NCc4cn(CC(N)=O)[n+](C)c4)c(Cl)c3)n2C)c(F)c1F [Example A23] | nM | 400

A: COc1ccc(-c2cnc(C(=O)Nc3ccc(C(=O)N4CCN(C(=O)C5CN(C(=O)C[N+](C)(C)C)C5)CC4)c(Cl)c3)n2C)c(F)c1F [Example B16, formate]
B: Cc1cc(NC(=O)c2ncc(-c3ccc(OCC#N)c(F)c3F)n2C)ccc1C(=O)N1CCN(C(=O)C2(O)CC[N+](C)(C)CC2)CC1 [Example B26, formate]
C: COc1ccc(-c2cnc(C(=O)Nc3ccc(C(=O)N4CCN(C(=O)C[N+](C)(C)C)CC4)c(Cl)c3)n2C)c(F)c1F [Example B20, formate]
D: Cn1c(-c2ccc(OCC#N)c(F)c2F)cnc1C(=O)Nc1ccc(C(=O)N2CCN(C(=O)C[N+](C)(C)CC(N)=O)CC2)c(Cl)c1 [Example B4, formate]
Incoming: Please produce an ascending ranking of these molecules based on IC90. Order the labels as requested and list them.
Outgoing: C, D, A, B
